Target: recombinant human enteropeptidase (Homo sapiens (Human))
Sequence (P98073 whole entry): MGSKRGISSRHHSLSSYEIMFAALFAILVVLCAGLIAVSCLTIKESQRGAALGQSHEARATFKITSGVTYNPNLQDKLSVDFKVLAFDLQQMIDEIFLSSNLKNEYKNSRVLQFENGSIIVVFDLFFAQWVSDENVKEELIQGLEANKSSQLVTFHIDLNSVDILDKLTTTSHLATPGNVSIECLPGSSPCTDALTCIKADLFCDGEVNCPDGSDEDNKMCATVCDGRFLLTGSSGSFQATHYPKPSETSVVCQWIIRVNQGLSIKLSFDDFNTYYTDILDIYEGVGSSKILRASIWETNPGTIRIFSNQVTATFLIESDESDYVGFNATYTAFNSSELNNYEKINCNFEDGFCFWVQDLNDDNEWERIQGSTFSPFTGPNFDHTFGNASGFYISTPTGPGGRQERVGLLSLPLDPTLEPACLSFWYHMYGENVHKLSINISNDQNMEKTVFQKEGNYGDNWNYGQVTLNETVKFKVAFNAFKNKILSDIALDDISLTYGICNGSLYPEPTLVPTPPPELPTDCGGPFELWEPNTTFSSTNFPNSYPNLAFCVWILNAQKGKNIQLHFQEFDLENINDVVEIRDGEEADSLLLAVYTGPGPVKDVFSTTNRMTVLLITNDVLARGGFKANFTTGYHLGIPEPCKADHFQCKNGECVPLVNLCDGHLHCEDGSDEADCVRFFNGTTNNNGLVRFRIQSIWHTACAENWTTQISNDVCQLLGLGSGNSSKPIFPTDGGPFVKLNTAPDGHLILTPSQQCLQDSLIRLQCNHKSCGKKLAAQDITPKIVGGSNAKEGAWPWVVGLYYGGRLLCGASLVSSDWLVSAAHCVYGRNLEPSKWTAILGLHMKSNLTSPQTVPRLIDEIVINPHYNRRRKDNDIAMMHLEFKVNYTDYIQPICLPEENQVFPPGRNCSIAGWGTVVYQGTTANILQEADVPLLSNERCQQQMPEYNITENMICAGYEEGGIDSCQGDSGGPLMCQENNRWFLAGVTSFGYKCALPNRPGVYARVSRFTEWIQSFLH
Assay: Measurement of enteropeptidase inhibitory activity
Details: substrate Gly-Asp-Asp-Asp-Asp-Lys-β-Naphtylamide, Tris-HCl pH 8.0, Dixon plot
pKi: −log10 of the molar value.
PARAMETER: pKi

Use these answered entries as a reference point.
MOL: CCC(CC)(Cc1ccc(C(=O)Oc2ccc(C(=N)N)cc2F)s1)C(=O)Nc1cccc(S(=O)(=O)O)c1
pKi: 9.08
--
MOL: CC(C)(Cc1ccc(C(=O)Oc2ccc(C(=N)N)cc2F)s1)C(=O)N[C@H]1CC=CC[C@H]1C(=O)O
pKi: 8.89
--
MOL: CCC(CC)(Cc1ccc(C(=O)Oc2ccc(C(=N)N)cc2F)s1)C(=O)N[C@@H](CCC(=O)O)c1nnn[nH]1
pKi: 9.37
--
MOL: CC(C)(Cc1ccc(C(=O)Oc2ccc(C(=N)N)cc2F)s1)C(=O)O.O=C(O)C(F)(F)F
pKi: 9.41
--
MOL: CC(C)(Cc1ccc(C(=O)Oc2ccc(C(=N)N)cc2F)s1)C(=O)Nc1cc(O)cc(C(=O)O)c1
pKi: 9.24

1 = CCC(CC)(Cc1ccc(C(=O)Oc2ccc(C(=N)N)cc2F)s1)C(=O)Nc1ccc(O)c(C(=O)O)c1
2 = CC(C)(Cc1ccc(C(=O)Oc2ccc(C(=N)N)cc2F)s1)C(=O)N[C@H]1CCC[C@@H](C(=O)O)C1
Data request: // compare measured pKi between 1 and 2 ; output the lower one Let me know the label of the one you choose.
Data returned: 1
